Tested on: P388 leukemia ip, CD2F1 mice, survival T/C
Assay: NCI In Vivo Anticancer Drug Screen. Data for tumor model P388 Leukemia (intraperitoneal) in CD2F1 (CDF1) mice
Conditions: endpoint: median survival time; dose: 200.0 mg/kg/injection; schedule: Q04DX002 (ip); vehicle: saline; higher = longer survival
Method: The antitumor activity of compounds was measured in mice bearing transplantable tumors. Survival or tumor size were measured and the results are expressed as the measurement made in the treated group (T) divided by the measurement made in the vehicle treated control group (C). The tumor model used in this assay is P388 Leukemia (intraperitoneal) in CD2F1 (CDF1) mice
Inconclusive results and toxic doses are left out.
READOUT NAME: T/C

COMPOUND | T/C
C1=NCCNc2nc3ccccc3cc2C=NCCNc2nc3ccccc3cc21 | 99 % of control
CNC(=S)N/N=C\C(C)=N/N1CCCCCC1 | 101 % of control
FC(F)(F)C1OC2CCCN2C2=C1CCc1ccccc12 (centres undefined) | 101 % of control

Field T/C (system: P388 leukemia ip, CD2F1 mice, survival T/C) for entry CC(C)C1CCC2(C)OC2C1=O (centres undefined) = 100 % of control

Observed T/C, P388 leukemia ip, CD2F1 mice, survival T/C, CN(C)CCCNC1C(C2COC(C)(C)O2)OC2OC(C)(C)OC21 (centres undefined) : 95 % of control

Record "CCCN1C(=O)CC(=O)N(CCC)P1(=O)OCC" has P388 leukemia ip, CD2F1 mice, survival T/C T/C equal to 108 % of control

Record "C=Cc1c2[n-]c(c1C)/C=c1\[n-]/c(c(C)c1C=C)=C\c1[n-]c(c(CCC(=O)O)c1C)/C=c1\[n-]/c(c(C)c1CCC(=O)O)=C\2.[Pt+4]" has P388 leukemia ip, CD2F1 mice, survival T/C T/C equal to 97 % of control

Here CCOP(=O)(OCC)OC(C)CC1CO1 (centres undefined) was tested on P388 leukemia ip, CD2F1 mice, survival T/C, and its T/C came to 98 % of control

Query CC(C(=O)O)S(=O)(=O)C(C)C(=O)O (centres undefined) on P388 leukemia ip, CD2F1 mice, survival T/C; T/C returned: 91 % of control

---

The following compounds are listed with their measured T/C values.
System: P388 leukemia ip, CD2F1 mice, survival T/C
Test: NCI In Vivo Anticancer Drug Screen. Data for tumor model P388 Leukemia (intraperitoneal) in CD2F1 (CDF1) mice
Conditions: endpoint: median survival time; dose: 100.0 mg/kg/injection; schedule: Q01DX001 (ip); vehicle: Klucel (hydroxypropylcellulose) (HPC); higher = longer survival
Description: The antitumor activity of compounds was measured in mice bearing transplantable tumors. Survival or tumor size were measured and the results are expressed as the measurement made in the treated group (T) divided by the measurement made in the vehicle treated control group (C). The tumor model used in this assay is P388 Leukemia (intraperitoneal) in CD2F1 (CDF1) mice
Toxic doses and inconclusive results are not listed.

These recorded examples may help you get a feel for the data.
COMPOUND | T/C
CN(CCOc1c(I)cc(I)cc1I)CC(O)C(O)C(O)C(O)CO (stereo not drawn) | 108 % of control
CC(=O)Nc1ccc(S(=O)(=O)Nc2ccc3oc(=O)[nH]c3c2)cc1 | 98 % of control
BrCC1(CBr)COC1 | 107 % of control

Item: "COc1cc(/C=C/C(=O)c2ccc(OCc3ccccc3)cc2OC(C)=O)c(OC)c(OC)c1OC" | T/C: 96 % of control

// T/C value for "c1cc(-c2nn[nH]n2)ccc1NNc1ccc(-c2nn[nH]n2)cc1" : 105 % of control

Recorded T/C (compound "Cc1cc(Cl)nn2cc(CC(=O)O)nc12" ): 100 % of control

Kindly note the recorded T/C for "CCC(=O)c1cccc2c(C=O)c(Cl)n(C(=O)CC)c12" , which is 100 % of control

The compound identified as "c1ccc(CNNc2nn[nH]n2)cc1" registered its T/C at 96 % of control

Sure, the documented T/C for "CC1(C)COSOC1" is 98 % of control

// recorded T/C for "CC(C)(C)C(=O)NNc1cccc(Cl)n1" : 98 % of control

Record COC(=O)C1(C)Cc2cc(OC(C)=O)c(OC(C)=O)cc2N1 (stereo not drawn) . Reported T/C: 109 % of control

For record "O=C(N/N=C/c1cc(Br)ccc1[O-])c1cccnc1.O=C(N/N=C/c1cc(Br)ccc1[O-])c1cccnc1.[Zn+2]" the listed T/C is 98 % of control

// T/C lookup, compound = "CCOc1n[nH]c(-c2ccc(Cl)cc2Cl)n1" , result: 102 % of control

For "CC(C)(OCc1ccccc1)c1ccccc1[P+](C)(c1ccccc1)c1ccccc1" the compound record lists T/C as 109 % of control

Sample O=C1OC(Cc2ccccc2)=C(Cl)C(Cl)(Cc2ccccc2)C1Cl (stereo not drawn) ; T/C observed: 100 % of control

Summary for this compound, "COc1ccc2c(=O)c(-c3ccc(OC)c(OC)c3OCc3ccccc3)coc2c1" : T/C is 92 % of control

O=C1OC(c2ccccc2)(c2ccccc2)C2CC12c1ccccc1 (stereo not drawn) yielded T/C of 95 % of control

The compound identified as O=C(CC1CCCC/C1=N\O)NO (stereo not drawn) registered its T/C at 106 % of control
